Each recorded value in this set is attributed to paper PMC5540273.

system: PIK4CB; construct: gene PI4KB;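 further: kd values determined as follow-up on hits from a single-replicate KINOMEscan panel screen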
result type: pKd
One number for each entry, as −log10 of the molar value.

QUERY: Annotate the compound NS(=O)(=O)c1cccc(-c2ccc3nccc(-c4cccc(S(N)(=O)=O)c4)c3c2)c1 [GW867253] with its measured pKd.
RESULT: 7.49

====

tested on: MAP4K5; conditions: concentration: 1 μM, replicates: in singlicate; n = 1
I'd appreciate it if you could supply %Inh values for the items below.
Numbers only, in %.

Reference set, count: 2
>  <compound>
Cn1ccc2ncnc(Oc3ccc(NC(=O)Nc4ccncc4)c(Cl)c3)c21

>  <assay target>
MAP4K5

>  <result units>
%

>  <%Inh>
0

$$$$
>  <compound>
CC(C)(C)n1cnc2c(N)ncnc21 [SKF-97359]

>  <assay target>
MAP4K5

>  <result units>
%

>  <%Inh>
0

$$$$

Go through the list and state %Inh for each entry.
1. Cl.Nc1ncnc2occ(-c3ccc(NC(=O)Nc4cc(C(F)(F)F)ccc4F)cc3)c12 [SB-707548]
2. Cn1cc(-c2ccc3c(c2)CCN3C(=O)Cc2ccccc2Cl)c2c(N)ncnc21 [GSK2608885]
3. CSc1ccc(-c2cc3ncnc(SCC(=O)O)c3s2)cc1

RESULT:
99.7
96.3
0

====

test system: ERBB3; settings: concentration: 1 μM, replicates: in singlicate; n = 1
Checkbox rule: %Inh lower than 9% = 1.0; %Inh not lower than 9% = 0.0.

Answered cases to consult:
>  <molecule>
CN(C(=O)c1ccc(-c2cc(-c3c[nH]nc3-c3ccccn3)ccn2)cc1)C1CCOCC1

>  <assay target>
ERBB3

>  <category>
0.0

$$$$
>  <molecule>
O=C(NCCCN1CCOCC1)c1cccc(Nc2nccc(Nc3ccc(Oc4ccccc4)cc3)n2)c1

>  <assay target>
ERBB3

>  <category>
0.0

$$$$
>  <molecule>
COc1ccc(Nc2ncc(C#N)c(Nc3ccccc3C(N)=O)n2)cc1N1CCN(C)CC1.Cl

>  <assay target>
ERBB3

>  <category>
0.0

$$$$
>  <molecule>
Nc1nc(-c2ccc3c(N)n[nH]c3c2)cc(N2CCCC2)n1

>  <assay target>
ERBB3

>  <category>
1.0

$$$$
>  <molecule>
O=C(c1ccc(-c2cc(-c3c[nH]nc3-c3ccccn3)ccn2)cc1)N1CCOCC1

>  <assay target>
ERBB3

>  <category>
1.0

$$$$
>  <molecule>
Cc1nnc(-c2ccc3ncc(-c4ccc(S(C)=O)cc4)n3c2)o1 (stereo not drawn)

>  <assay target>
ERBB3

>  <category>
1.0

$$$$

# ---- query molecule ----
QUERY: Quick check: %Inh of `N#Cc1ccc(-c2cc(-c3c[nH]nc3-c3ccccn3)ccn2)cc1` under 9%?
RESULT: 1.0

====

system: GCN2(Kin.Dom.2,S808G); construct: gene EIF2AK4; details: concentration: 1 μM, replicates: in singlicate; n = 1
Checkbox rule: %Inh lower than 2% = satisfied; %Inh not lower than 2% = not satisfied.

Answered cases to consult:
>  <compound>
C[C@@H](Oc1cc(-n2cnc3ccc(NC(=O)NC(C)(C)C)cc32)sc1C(N)=O)c1ccccc1Cl [GSK346294]

>  <category>
satisfied

$$$$
>  <compound>
N#Cc1c(N2CCOCC2)sc(-c2ccn[nH]2)c1-c1ccc(Cl)cc1

>  <category>
satisfied

$$$$
>  <compound>
Fc1ccc(-c2nn3c(OCC(F)(F)F)cccc3c2-c2ccncc2)cc1 [GW514784]

>  <category>
satisfied

$$$$
>  <compound>
NS(=O)(=O)CCc1cccc(Nc2nccc(-c3c(-c4cccc(NC(=O)c5c(F)cccc5F)c4)nn4ccccc34)n2)c1 [GSK336735]

>  <category>
not satisfied

$$$$
>  <compound>
COc1ccc(S(=O)(=O)NC2CCN(c3cc(C)nc(Nc4cccc(C#N)c4)n3)CC2)cc1.O=C(O)C(F)(F)F [GSK1653539]

>  <category>
satisfied

$$$$

QUERY: Quick check: %Inh of O=c1cc(N2CCOCC2)nc2n(Cc3cccc(F)c3)ccn12 [GSK2297430] under 2%?
RESULT: satisfied

QUERY: Quick check: %Inh of CC(C)(C)n1cnc2c(N)ncnc21 [SKF-97359] under 2%?
RESULT: not satisfied

QUERY: Quick check: %Inh of NCCNS(=O)(=O)c1ccc(-c2ccnc3[nH]ccc23)cc1 [GSK977617] under 2%?
RESULT: satisfied
